Assay: Solubility in phosphate buffered saline
Type: physicochemical
Conditions: 10 mM phosphate buffered saline (0.138 M NaCl, 2.7 mM KCl), pH 7.4
TEST READOUT: Solubility (mg/mL) PBS

Measured Solubility (mg/mL) PBS of CNC(CC(C)C)C(=O)NC1C(=O)NC(CC(N)=O)C(=O)NC2C(=O)NC3C(=O)NC(C(=O)NC(C(=O)OCC(=O)NCCCCN)c4cc(O)cc(O)c4-c4cc3ccc4O)C(OC3CC(C)(N)C(O)C(C)O3)c3ccc(c(Cl)c3)Oc3cc2cc(c3OC2OC(CO)C(O)C(O)C2OC2CC(C)(NCc3ccc(-c4ccc(Cl)cc4)cc3)C(O)C(C)O2)Oc2ccc(cc2Cl)C1O (stereo not shown) [Compound 90c] : <1.6 mg/mL

----------
Measured MIC against S. aureus ATCC 13709, CAMHB + 0.002% tween accompanies every entry in the list below.
Tested on: S. aureus ATCC 13709
Assay: In vitro antibacterial susceptibility (MIC, broth microdilution)
Assay type: cell-based
Conditions: CAMHB + 0.002% tween
Response body: numeric value in µg/mL, unit text excluded.

Here are 6 compounds together with their reported answers.
INSERT INTO measurements (compound, result_number) VALUES
  ('CC(C)CC(C(=O)NC1C(=O)NC(CC(N)=O)C(=O)NC2C(=O)NC3C(=O)NC(C(=O)NC(C(=O)O)c4cc(O)cc(O)c4-c4cc3ccc4O)C(OC3CC(C)(N)C(O)C(C)O3)c3ccc(c(Cl)c3)Oc3cc2cc(c3OC2OC(CO)C(O)C(O)C2OC2CC(C)(NCc3ccc(-c4ccc(Cl)cc4)cc3)C(O)C(C)O2)Oc2ccc(cc2Cl)C1O)N(C)C(=O)CCC(=O)N(CC(=O)O)CC(=O)O (centres unmarked) [Compound 13]', 2),
  ('CC(C)CC(C(=O)NC1C(=O)NC(CC(N)=O)C(=O)NC2C(=O)NC3C(=O)NC(C(=O)NC(C(=O)O)c4cc(O)cc(O)c4-c4cc3ccc4O)C(OC3CC(C)(N)C(O)C(C)O3)c3ccc(c(Cl)c3)Oc3cc2cc(c3OC2OC(CO)C(O)C(O)C2OC2CC(C)(NCc3ccc(-c4ccc(Cl)cc4)cc3)C(O)C(C)O2)Oc2ccc(cc2Cl)C1O)N(C)C(=O)CNCCCNCCCCNCCCN (centres unmarked) [Compound 36]', 0.06),
  ('CNC(CC(C)C)C(=O)NC1C(=O)NC(CC(N)=O)C(=O)NC2C(=O)NC3C(=O)NC(C(=O)NC(C(=O)SCC(=O)NCCCN)c4cc(O)cc(O)c4-c4cc3ccc4O)C(OC3CC(C)(N)C(O)C(C)O3)c3ccc(c(Cl)c3)Oc3cc2cc(c3OC2OC(CO)C(O)C(O)C2OC2CC(C)(NCc3ccc(-c4ccc(Cl)cc4)cc3)C(O)C(C)O2)Oc2ccc(cc2Cl)C1O (centres unmarked) [Compound 93]', 0.125),
  ('CNC(CC(C)C)C(=O)NC1C(=O)NC(CC(N)=O)C(=O)NC2C(=O)NC3C(=O)NC(C(=O)NC(C(=O)OCC(=O)NCCCNCCCCNCCCN)c4cc(O)cc(O)c4-c4cc3ccc4O)C(OC3CC(C)(N)C(O)C(C)O3)c3ccc(c(Cl)c3)Oc3cc2cc(c3OC2OC(CO)C(O)C(O)C2OC2CC(C)(NCc3ccc(-c4ccc(Cl)cc4)cc3)C(O)C(C)O2)Oc2ccc(cc2Cl)C1O (centres unmarked) [Compound 28]', 0.125),
  ('CNC(CC(C)C)C(=O)NC1C(=O)NC(CC(N)=O)C(=O)NC2C(=O)NC3C(=O)NC(C(=O)NC(C(=O)OCC(=O)N(C)CCN(C)C)c4cc(O)cc(O)c4-c4cc3ccc4O)C(OC3CC(C)(N)C(O)C(C)O3)c3ccc(c(Cl)c3)Oc3cc2cc(c3OC2OC(CO)C(O)C(O)C2OC2CC(C)(NCc3ccc(-c4ccc(Cl)cc4)cc3)C(O)C(C)O2)Oc2ccc(cc2Cl)C1O (centres unmarked) [Compound 103]', 0.25),
  ('CC(C)CC(C(=O)NC1C(=O)NC(CC(N)=O)C(=O)NC2C(=O)NC3C(=O)NC(C(=O)NC(C(=O)O)c4cc(O)cc(O)c4-c4cc3ccc4O)C(OC3CC(C)(N)C(O)C(C)O3)c3ccc(c(Cl)c3)Oc3cc2cc(c3OC2OC(CO)C(O)C(O)C2OC2CC(C)(NCc3ccc(-c4ccc(Cl)cc4)cc3)C(O)C(C)O2)Oc2ccc(cc2Cl)C1O)N(C)C(=O)CNC(=O)C(N)CCCCN (centres unmarked) [Compound 61]', 0.25);

Record CC(C)CC(C(=O)NC1C(=O)NC(CC(N)=O)C(=O)NC2C(=O)NC3C(=O)NC(C(=O)NC(C(=O)O)c4cc(O)cc(O)c4-c4cc3ccc4O)C(OC3CC(C)(N)C(O)C(C)O3)c3ccc(c(Cl)c3)Oc3cc2cc(c3OC2OC(CO)C(O)C(O)C2OC2CC(C)(NCc3ccc(-c4ccc(Cl)cc4)cc3)C(O)C(C)O2)Oc2ccc(cc2Cl)C1O)N(C)C(=O)OCOC(=O)C(N)CCCCN (centres unmarked) [Compound 44] has S. aureus ATCC 13709 MIC against S. aureus ATCC 13709, CAMHB + 0.002% tween equal to 0.5

Here CC(C)CC(C(=O)NC1C(=O)NC(CC(N)=O)C(=O)NC2C(=O)NC3C(=O)NC(C(=O)NC(C(=O)O)c4cc(O)cc(O)c4-c4cc3ccc4O)C(OC3CC(C)(N)C(O)C(C)O3)c3ccc(c(Cl)c3)Oc3cc2cc(c3OC2OC(CO)C(O)C(O)C2OC2CC(C)(NCc3ccc(-c4ccc(Cl)cc4)cc3)C(O)C(C)O2)Oc2ccc(cc2Cl)C1O)N(C)C(=O)OCOC(=O)CNCCCNCCCCNCCCN (centres unmarked) [Compound 38] was tested on S. aureus ATCC 13709, and its MIC against S. aureus ATCC 13709, CAMHB + 0.002% tween came to 0.25

For CC(C)CC(C(=O)NC1C(=O)NC(CC(N)=O)C(=O)NC2C(=O)NC3C(=O)NC(C(=O)NC(C(=O)O)c4cc(O)cc(O)c4-c4cc3ccc4O)C(OC3CC(C)(N)C(O)C(C)O3)c3ccc(c(Cl)c3)Oc3cc2cc(c3OC2OC(CO)C(O)C(O)C2OC2CC(C)(NCc3ccc(-c4ccc(Cl)cc4)cc3)C(O)C(C)O2)Oc2ccc(cc2Cl)C1O)N(C)C(=O)OCOC(=O)CCP(=O)(O)O (centres unmarked) [Compound 84] on S. aureus ATCC 13709, measured MIC against S. aureus ATCC 13709, CAMHB + 0.002% tween was 0.125

Tested on S. aureus ATCC 13709: CNC(CC(C)C)C(=O)NC1C(=O)NC(CC(N)=O)C(=O)NC2C(=O)NC3C(=O)NC(C(=O)NC(C(=O)OCC(=O)NCCN)c4cc(O)cc(O)c4-c4cc3ccc4O)C(OC3CC(C)(N)C(O)C(C)O3)c3ccc(c(Cl)c3)Oc3cc2cc(c3OC2OC(CO)C(O)C(O)C2OC2CC(C)(NCc3ccc(-c4ccc(Cl)cc4)cc3)C(O)C(C)O2)Oc2ccc(cc2Cl)C1O (centres unmarked) [Compound 90a] . Observed MIC against S. aureus ATCC 13709, CAMHB + 0.002% tween: 0.5

The reported S. aureus ATCC 13709 MIC against S. aureus ATCC 13709, CAMHB + 0.002% tween of CNC(CC(C)C)C(=O)NC1C(=O)NC(CC(N)=O)C(=O)NC2C(=O)NC3C(=O)NC(C(=O)NC(C(=O)OCC(=O)NCCCNCCCN)c4cc(O)cc(O)c4-c4cc3ccc4O)C(OC3CC(C)(N)C(O)C(C)O3)c3ccc(c(Cl)c3)Oc3cc2cc(c3OC2OC(CO)C(O)C(O)C2OC2CC(C)(NCc3ccc(-c4ccc(Cl)cc4)cc3)C(O)C(C)O2)Oc2ccc(cc2Cl)C1O (centres unmarked) [Compound 66] is 0.25
